target: T1, human Complement Factor D (CFD), purified from human serum (human, UniProt P00746 26-253); assay: SPR MX96, mAbs amine-coupled, CFD injected
T1 construct: serum purified (CompTech A136); also called serum purified CFD; hCFD-Comptech
T1 sequence (P00746 26-253): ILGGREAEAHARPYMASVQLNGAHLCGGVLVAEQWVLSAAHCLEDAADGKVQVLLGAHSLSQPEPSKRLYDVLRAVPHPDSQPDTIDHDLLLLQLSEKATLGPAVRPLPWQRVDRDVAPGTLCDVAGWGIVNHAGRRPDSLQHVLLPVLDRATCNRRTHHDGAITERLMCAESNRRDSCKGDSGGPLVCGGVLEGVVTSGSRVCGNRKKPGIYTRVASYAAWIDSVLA
reported metric: Kd (nM)
Could you give me the number in nM? Just the number is fine.

For this binder ( KCD104 (antibody, V domains shown) VH: QVQLQQPGAELVRPGTSVKLSCKASGYTFTSYWMHWVKQRPGQGLEWIGVIDPSDSYTYYNQKFKGKATLTVDTSSSTAYMQLSSLTSEDSAVYYCARNGYDGAMDYWGQGTSVTVSS VL: EIQMTQTTSSLSASLGDRVTISCRASQDISNYLNWYQQKPDGTVKLLIYYPSRLHSGVPSRFSGSGSGTDYSLTISNLEQEDFATYFCQQGNTLPYTFGGGTKLEIK ), measured Kd is 1.58

For this binder ( KCD131 (antibody, V domains shown) VH: QVQLQQSGPELVKPGASVKISCKASAYTFTDYYINWVKQRPGQGPEWIGWIFPGSNSTYSNEKFEVKATLTVDESSSTAYMLLSSLTSEDSAVYFCARLGYFGSSYHALDYWGQGTSVTVSS VL: DIQMTQSPASLSVSVGETVTITCRASENIYSHLAWFQQKQGKSPRLLVYSATNLPDGVPSRFSGSGSGTQYSLKINILQSEDFGSYYCQHFWGTPWTFGGGTKLEIK ), measured Kd is 0.14

New cases:
For this binder ( KCD014 (antibody, V domains shown) VH: EVKLVESGGGLVQPGGSLKLSCAASGFTFSSYIMSWVRQTPEKRLEWVAYITNGGGNTYYPDTIKGRFTISRDNAKNTLYLQMSSLKSEDTAMYYCARHGTGYAMDYWGQGTSVTVSS VL: EIVLTQSPTTMAASPGEKITITCSASSSISSNYLHWYQQKPGFSPKLLIYRTSNLASGVPARFSGSGSGTSYSLTIGTMEAEDVATYYCQQGSSIPLTFGAGTKLELK ), measured Kd is 21.8
